The measurements presented in this section are drawn from PubChem BioAssay (Tox21).

target: D(2) dopamine receptor (Homo sapiens) (UniProt P14416); assay: Dopamine D2 receptor (DRD2) small molecule agonists, cell-based qHTS assay (AID 1963594); details: HEK293-DRD2 cAMP HTRF, agonist mode, 30 min; series mostly up to 92.4 µM; note: % is set by controls: 0 for no effect and ±100 for the full control effect; nearly all actives have a fitted effect of over 35% in size
Sequence (P14416 whole entry, looked up): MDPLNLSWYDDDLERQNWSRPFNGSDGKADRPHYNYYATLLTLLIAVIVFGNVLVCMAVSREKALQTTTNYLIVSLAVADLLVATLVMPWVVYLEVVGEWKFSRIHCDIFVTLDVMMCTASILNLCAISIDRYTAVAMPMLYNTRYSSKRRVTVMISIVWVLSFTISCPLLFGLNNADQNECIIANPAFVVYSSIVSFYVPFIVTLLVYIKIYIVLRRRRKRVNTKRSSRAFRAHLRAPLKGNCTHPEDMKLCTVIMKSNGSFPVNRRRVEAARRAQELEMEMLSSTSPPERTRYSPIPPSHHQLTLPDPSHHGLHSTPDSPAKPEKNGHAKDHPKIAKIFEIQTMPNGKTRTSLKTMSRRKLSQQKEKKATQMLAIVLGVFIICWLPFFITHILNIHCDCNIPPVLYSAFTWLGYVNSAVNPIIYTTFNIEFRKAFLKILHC
Results filed as inconclusive are left out. Active and inactive are the calls of the source. Calls come from the whole dose curve.
Parameter: activation

Consider the following illustrative entries.
O=C(O)CCNC(=O)c1ccccc1 = inactive
O=[N+]([O-])c1cccc(S(=O)(=O)NCCNS(=O)(=O)c2cccc([N+](=O)[O-])c2)c1 = inactive
CC(C)CCCC(C)NCCC(C)C (stereo not drawn) = inactive
CN1CCN(c2c(F)cc3c(=O)c(C(=O)O)cn4c3c2OCN4C)CC1 = 11.6% [at 19 µM] (inactive)
COCCCCCCCCOCCC[Si](C)(O[Si](C)(C)C)O[Si](C)(C)C = inactive

Measured activation of COc1cc2c(cc1OC)C(C(C(=O)N(CCc1ccc(OC)c(OC)c1OC)CCc1ccc(OC)c(OC)c1OC)c1ccccc1)=NCC2 (stereo not drawn) : inactive

Consider OCC(CBr)(CBr)CBr . Its measured activation is inactive

---

target: 5-hydroxytryptamine receptor 2A (Homo sapiens) (UniProt P28223); assay: 5-hydroxytryptamine receptor 2A (HTR2A) small molecule agonists, cell-based qHTS assay (AID 1963587); conditions: HTR2A-CHO cells, calcium flux fluorescence, agonist mode; series mostly up to 76.8 µM; note: % is set by controls: 0 for no effect and ±100 for the full control effect; nearly all actives have a fitted effect of over 30% in size
Sequence (P28223 whole entry, looked up): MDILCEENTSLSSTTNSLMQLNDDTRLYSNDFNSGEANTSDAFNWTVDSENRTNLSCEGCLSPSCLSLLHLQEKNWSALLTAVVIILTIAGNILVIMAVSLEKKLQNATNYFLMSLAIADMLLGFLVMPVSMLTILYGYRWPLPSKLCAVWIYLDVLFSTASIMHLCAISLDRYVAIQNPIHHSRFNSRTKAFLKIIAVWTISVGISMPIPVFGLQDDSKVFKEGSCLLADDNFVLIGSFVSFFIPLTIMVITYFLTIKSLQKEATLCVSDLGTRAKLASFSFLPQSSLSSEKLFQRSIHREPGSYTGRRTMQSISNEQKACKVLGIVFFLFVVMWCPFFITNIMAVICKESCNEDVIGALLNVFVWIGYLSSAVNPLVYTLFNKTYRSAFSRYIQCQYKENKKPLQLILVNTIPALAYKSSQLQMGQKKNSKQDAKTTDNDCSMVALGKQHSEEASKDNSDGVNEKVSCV
Results filed as inconclusive are left out. Calls of active or inactive are those of the source. The call rests on the fitted dose curve.
Parameter: activation

// below: answered compounds
CCCCOC(=O)C(C)O (stereo unspecified) = inactive
CCC(=O)O[C@]1(C(=O)SCF)[C@H](C)C[C@H]2[C@@H]3C[C@H](F)C4=CC(=O)C=C[C@]4(C)[C@@]3(F)[C@@H](O)C[C@@]21C = inactive
C=C(C)C1CCC(C)CC1O (stereo unspecified) = inactive
CCN(CC)CCOc1ccccc1C(=O)CCc1ccccc1 = inactive
CCCCC = inactive

Now, please, on to the next compound.
Entry CC1(C)CC(OC(=O)CCCCCCCCC(=O)OC2CC(C)(C)NC(C)(C)C2)CC(C)(C)N1 , activation reported as 2.3% [at 15.9 µM] (inactive)

---

test: Nuclear factor erythroid 2-related factor 2/antioxidant responsive element (Nrf2/ARE) small molecule agonists: qHTS cell viability counter screen in human keratinocytes (AID 1919968); conditions: KeratinoSens HaCaT ARE cells viability, CellTiter-Fluor, 24 h; series mostly up to 92.4 µM; note: % is set by controls: 0 for no effect and ±100 for the full control effect; nearly all actives have a fitted effect of over 55% in size
Inconclusive results are not listed. Calls of active or inactive are those of the source. The call rests on the fitted dose curve; in most records, active means well fitted cell-killing curve with a large enough effect in the repeat runs; inconclusive means weak or mixed curves, or effect the other way; inactive means flat fitted curve, though single readings scatter.
Return exactly one item of Y for active, N for inactive

Previously resolved entries follow.
COC(C)OC = N
Cc1ccc(=O)n(-c2ccccc2)c1 = N
CCO[Si](C)(CCCOCC1CO1)OCC (centres undefined) = N

// query Recorded test call requested for CC(CCc1ccccc1)NCC(O)c1ccc(O)c(C(N)=O)c1 (centres undefined)
// result N

// query In this assay, the call recorded for Cc1nc2n(c(=O)c1CCN1CCC(C(=O)c3ccc(F)cc3)CC1)CCS2 was what?
// result N

// query Test call, this compound: O=C(c1ccco1)N1CCNCC1
// result N

---

assay: p53 small molecule agonists, cell-based qHTS assay (AID 1963582); conditions: HCT-116 p53RE-bla reporter, beta-lactamase FRET ratio, 16 h; series mostly up to 66 µM; note: % is set by controls: 0 for no effect and ±100 for the full control effect
Inconclusive results are not listed. Calls of active or inactive are those of the source. The call rests on the fitted dose curve; in most records, active means well fitted activation curve with a large enough effect in the signal ratio in the repeat runs (not every such curve was filed as active); inconclusive means weak or mixed curves; inactive means flat fitted curve, though single readings scatter; the % refers to the signal ratio.
Parameter: activation

The cases that follow already have their activation on record.
C1CCN(CN2CCCCC2)CC1 = inactive
NC(=O)c1cn(Cc2c(F)cccc2F)nn1 = inactive
COc1cccc(-c2ccc(/C=C\CN3CCCCCC3)cc2Cl)c1 = inactive
CCOc1cc(OCC)c(C(=O)CCC(=O)O)cc1OCC = inactive
Nc1ccc(C(=O)N2CC3CC(CN(Cc4ccccc4)C3)C2)cc1 = inactive
N#C/C(=C1\SCC(c2ccccc2Cl)S1)n1ccnc1 (stereo not drawn) = inactive
N[C@@H](Cc1cc(I)c(O)c(I)c1)C(=O)O = inactive
CCCCOCCOC(=O)COc1ccc(Cl)cc1Cl = inactive

Briefly, activation measured for CC1CCc2cc(F)cc3c(=O)c(C(=O)O)cn1c23 (stereo not drawn) : inactive

// sample CSc1cnc(C)cn1 , its activation was inactive

Notebook: CCCCCCCCCCCCCCCCOP(=O)([O-])OCC[N+](C)(C)C , activation read as inactive

CCc1ccc(C(=O)C(C)CN2CCCCC2)cc1 (stereo not drawn) has a reported activation of inactive

// CCOC(=O)CCC(=O)OCC : activation value = inactive

activation in this record for CCCCCC[C@@H](O)C/C=C\CCCCCCCC(=O)OCC(O)CO (stereo partly drawn) : inactive

Reported activation ( O=C(OCC(O)CO)c1ccccc1Nc1ccnc2c(C(F)(F)F)cccc12 (stereo not drawn) ) = inactive

Measured activation, C=CC1CO1 (stereo not drawn) : inactive
